Listed here: items and their measured switch fluorescence ratio.
System: ATP;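 note: ATP exposure 15 min at 22 °C before imaging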
Experiment: switch fluorescence ratio, 500 uM ATP over buffer (Cy3 cluster intensity, sum of 5 cycles each) (fold (ratio)); higher = stronger signal-on switching upon ATP binding; sequences stand for … in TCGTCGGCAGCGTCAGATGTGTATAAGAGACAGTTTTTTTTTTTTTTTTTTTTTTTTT…TC
Details: aptamer strand: ATP DNA aptamer (quencher-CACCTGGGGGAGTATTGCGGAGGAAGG + anchor), 100 nM annealed; ATP concentration: 500 uM
Just the number, please, no unit attached.

Some solved cases for reference:
{"record sequence": "TGAGGGGTGG", "metric": "switch fluorescence ratio", "test result": 0.961}
{"record sequence": "AGCGCCAGGG", "metric": "switch fluorescence ratio", "test result": 1.13}

Return value of switch fluorescence ratio for input "ATGGGGTGTA" , no commentary.
1

Return value of switch fluorescence ratio for input "TCGGTGGAGA" , no commentary.
1.01

Return value of switch fluorescence ratio for input "TTGTGAATAT" , no commentary.
1

Return value of switch fluorescence ratio for input "GACGGAGGGG" , no commentary.
1.01

Return value of switch fluorescence ratio for input "GGTATATTGG" , no commentary.
1.01

----------
Tested on: ATP;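 note: ATP exposure 15 min at 22 °C before imaging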
Test: switch fluorescence ratio, 500 uM ATP over buffer (Cy3 cluster intensity, sum of 5 cycles each) (fold (ratio)); higher = stronger signal-on switching upon ATP binding; sequences stand for … in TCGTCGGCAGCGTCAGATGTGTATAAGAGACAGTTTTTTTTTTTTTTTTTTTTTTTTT…TC
Settings: aptamer strand: ATP DNA aptamer (quencher-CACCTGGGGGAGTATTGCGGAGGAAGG + anchor), 100 nM annealed; ATP concentration: 500 uM
The threshold is inclusive: switch fluorescence ratio of exactly 1 counts as true (1); values below receive false (0).

Some entries whose results are on file:
{"record sequence": "CCGGGGTCGA", "class label": "true (1)"}
{"record sequence": "AGCAAGGATT", "class label": "true (1)"}
{"record sequence": "TCGGGTTCTC", "class label": "false (0)"}

Check the entry "AGGAATTGAT" : does switch fluorescence ratio equal or exceed 1?
true (1)

----------
System: ATP;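 note: ATP exposure 15 min at 22 °C before imaging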
Experiment: switch fluorescence ratio, 500 uM ATP over buffer (Cy3 cluster intensity, sum of 5 cycles each) (fold (ratio)); higher = stronger signal-on switching upon ATP binding; sequences stand for … in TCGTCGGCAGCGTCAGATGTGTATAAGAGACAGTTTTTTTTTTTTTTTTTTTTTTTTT…TC
Conditions: aptamer strand: ATP DNA aptamer (quencher-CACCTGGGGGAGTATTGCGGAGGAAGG + anchor), 100 nM annealed; ATP concentration: 500 uM
metric: switch fluorescence ratio
Just the number, please, no unit attached.

{"record sequence": "TTGCGTTTGA", "switch fluorescence ratio": 1.01}
{"record sequence": "CGGTTTGGGG", "switch fluorescence ratio": 0.991}
{"record sequence": "AGGTGTATTC", "switch fluorescence ratio": 0.996}
{"record sequence": "TGCGGGGAGC", "switch fluorescence ratio": 0.975}
{"record sequence": "ATTAAGGATT", "switch fluorescence ratio": 1.01}
{"record sequence": "TTATATTTAG", "switch fluorescence ratio": 0.988}

Return value of switch fluorescence ratio for input "TAATTGAGGC" , no commentary.
1.04

Return value of switch fluorescence ratio for input "CAGCTGGTAT" , no commentary.
0.999

Return value of switch fluorescence ratio for input "GCTATTTGTA" , no commentary.
1.01

Return value of switch fluorescence ratio for input "TGTGGGAAGG" , no commentary.
1.05

Return value of switch fluorescence ratio for input "GCAGGGTGTC" , no commentary.
1.08

Return value of switch fluorescence ratio for input "ACCCGAGTTT" , no commentary.
1

----------
Test system: ATP;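 note: ATP exposure 15 min at 22 °C before imaging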
Assay: switch fluorescence ratio, 500 uM ATP over buffer (Cy3 cluster intensity, sum of 5 cycles each) (fold (ratio)); higher = stronger signal-on switching upon ATP binding; sequences stand for … in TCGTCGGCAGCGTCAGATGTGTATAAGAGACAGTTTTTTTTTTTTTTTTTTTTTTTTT…TC
Settings: aptamer strand: ATP DNA aptamer (quencher-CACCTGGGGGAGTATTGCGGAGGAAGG + anchor), 100 nM annealed; ATP concentration: 500 uM
Listed here: items and their measured switch fluorescence ratio.
Just the number, please, no unit attached.

Some solved cases for reference:
{"record sequence": "GCTCTATAAT", "test result": 1.03}
{"record sequence": "TGGTGTTTGG", "test result": 0.979}
{"record sequence": "GTGGACACAC", "test result": 1.04}
{"record sequence": "GTGGCTTTTT", "test result": 1}
{"record sequence": "TTGTATGGGG", "test result": 0.984}
{"record sequence": "CTTATAACAG", "test result": 1.01}

Return value of switch fluorescence ratio for input "TTTGTTGCTG" , no commentary.
1.03

Return value of switch fluorescence ratio for input "GAGTGATAAG" , no commentary.
1

Return value of switch fluorescence ratio for input "TTAGTAGTGC" , no commentary.
1.02

Return value of switch fluorescence ratio for input "ATATCCCTGT" , no commentary.
1.01

Return value of switch fluorescence ratio for input "ATGGAGAGGG" , no commentary.
0.987

Return value of switch fluorescence ratio for input "TTCTTTGGCT" , no commentary.
0.977

Return value of switch fluorescence ratio for input "GAGGTGAGG" , no commentary.
0.989

Return value of switch fluorescence ratio for input "ACAGGAAACG" , no commentary.
1.04

Return value of switch fluorescence ratio for input "GCTTGTTGTA" , no commentary.
0.998

Return value of switch fluorescence ratio for input "CTAAATATGA" , no commentary.
0.98

Return value of switch fluorescence ratio for input "GCAGACCATT" , no commentary.
1.05

Return value of switch fluorescence ratio for input "TTCTCATTGG" , no commentary.
0.989

Return value of switch fluorescence ratio for input "ACTTGGACGC" , no commentary.
1.14

Return value of switch fluorescence ratio for input "CTGGTCATCT" , no commentary.
0.991

Return value of switch fluorescence ratio for input "CGTAGACTTG" , no commentary.
0.974

Return value of switch fluorescence ratio for input "GGCTTTCATT" , no commentary.
0.983

Return value of switch fluorescence ratio for input "TCGATTCAGC" , no commentary.
0.979

Return value of switch fluorescence ratio for input "AGATAGAGCG" , no commentary.
1.01

Return value of switch fluorescence ratio for input "GGTATTCGAG" , no commentary.
1.02

----------
Listed here: items and their measured switch fluorescence ratio.
Tested on: ATP;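 note: ATP exposure 15 min at 22 °C before imaging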
Experiment: switch fluorescence ratio, 500 uM ATP over buffer (Cy3 cluster intensity, sum of 5 cycles each) (fold (ratio)); higher = stronger signal-on switching upon ATP binding; sequences stand for … in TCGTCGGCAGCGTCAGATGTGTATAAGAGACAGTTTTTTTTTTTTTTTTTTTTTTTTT…TC
Settings: aptamer strand: ATP DNA aptamer (quencher-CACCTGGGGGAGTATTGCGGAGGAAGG + anchor), 100 nM annealed; ATP concentration: 500 uM
Just the number, please, no unit attached.

Some solved cases for reference:
{"record sequence": "TTATGAAGGT", "switch fluorescence ratio": 1.02}
{"record sequence": "AGTGAGATGA", "switch fluorescence ratio": 1}

Return value of switch fluorescence ratio for input "GATGTCCCGG" , no commentary.
0.987

Return value of switch fluorescence ratio for input "CCCATGATGG" , no commentary.
1.01

Return value of switch fluorescence ratio for input "ATAGGAGTTC" , no commentary.
1.03

Return value of switch fluorescence ratio for input "TGAGGGGCAG" , no commentary.
0.984

Return value of switch fluorescence ratio for input "CGGGTATTGG" , no commentary.
0.98

----------
Tested on: ATP;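 note: ATP exposure 15 min at 22 °C before imaging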
Experiment: switch fluorescence ratio, 500 uM ATP over buffer (Cy3 cluster intensity, sum of 5 cycles each) (fold (ratio)); higher = stronger signal-on switching upon ATP binding; sequences stand for … in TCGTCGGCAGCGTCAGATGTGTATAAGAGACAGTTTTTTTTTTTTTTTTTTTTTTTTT…TC
Conditions: aptamer strand: ATP DNA aptamer (quencher-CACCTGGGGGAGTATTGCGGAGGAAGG + anchor), 100 nM annealed; ATP concentration: 500 uM
metric: switch fluorescence ratio
Just the number, please, no unit attached.

Some solved cases for reference:
{"record sequence": "GAGGGGGATC", "switch fluorescence ratio": 1.02}
{"record sequence": "ACTTTTCGGT", "switch fluorescence ratio": 1}
{"record sequence": "GGTAAAGATA", "switch fluorescence ratio": 0.986}
{"record sequence": "GGGTACGCTT", "switch fluorescence ratio": 1}
{"record sequence": "GTTGTTTTGT", "switch fluorescence ratio": 0.985}

Return value of switch fluorescence ratio for input "AAATCCGCTT" , no commentary.
1.27

Return value of switch fluorescence ratio for input "TCAAAAGTCG" , no commentary.
1.03

Return value of switch fluorescence ratio for input "TATGTCTACA" , no commentary.
0.986

Return value of switch fluorescence ratio for input "TGAAAACGGG" , no commentary.
1.02

Return value of switch fluorescence ratio for input "ATGGTCAGGG" , no commentary.
0.987

Return value of switch fluorescence ratio for input "TATTAACGTT" , no commentary.
1.02

Return value of switch fluorescence ratio for input "TCGTGAGGTG" , no commentary.
1.02
